Just for reference, patent EP4285895A1 is where these values come from.

Assay: physchem
Conditions: phosphate buffer, pH 6.8, aqueous buffer

sample_smiles: O=C1CN(N=Cc2ccc([N+](=O)[O-])o2)C(=O)N1
solubility: 200 µg/mL

----------
Experiment: physchem
Details: acetate buffer, pH 4.5, aqueous buffer
parameter: solubility (µg/mL)

sample_smiles: O=C1CN(N=Cc2ccc([N+](=O)[O-])o2)C(=O)N1
parameter: solubility
observed_result: 50
